- tested on: Glucagon receptor (Homo sapiens)
- Sequence (P47871 whole entry): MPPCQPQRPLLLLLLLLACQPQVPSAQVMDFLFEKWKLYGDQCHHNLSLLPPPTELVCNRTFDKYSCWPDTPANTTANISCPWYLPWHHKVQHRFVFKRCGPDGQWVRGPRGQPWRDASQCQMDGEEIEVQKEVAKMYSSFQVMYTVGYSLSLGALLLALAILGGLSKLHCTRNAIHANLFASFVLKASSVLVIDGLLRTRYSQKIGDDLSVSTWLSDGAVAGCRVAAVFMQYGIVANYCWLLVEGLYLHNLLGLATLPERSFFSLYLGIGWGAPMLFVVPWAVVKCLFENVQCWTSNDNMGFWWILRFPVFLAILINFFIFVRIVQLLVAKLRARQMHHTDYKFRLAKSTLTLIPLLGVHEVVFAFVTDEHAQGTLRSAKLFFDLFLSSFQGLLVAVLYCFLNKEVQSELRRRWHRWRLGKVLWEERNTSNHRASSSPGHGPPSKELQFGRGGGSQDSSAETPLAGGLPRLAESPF
- assay info: Displacement of [125I]porcine glucagon from human recombinant glucagon receptor expressed in BHK cells by scintillation proximity assay
- Type: cell-based
IC50 values by entry

# molecule smiles, IC50
records = [
    ("O=C(O)CCNC(=O)c1ccc(CN(c2ccc3c(c2)CCCC3)c2nc(-c3ccc(Cl)c(Cl)c3)cs2)cc1", "79 nM"),
    ("O=C(O)CCNC(=O)c1ccc(CN(c2ccc3c(c2)CCC3)c2nc(-c3ccc(OC(F)(F)F)cc3)cs2)cc1", "85 nM"),
    ("O=C(O)CCNC(=O)c1ccc(CN(c2ccc3c(c2)CCC3)c2nc(-c3ccc(C(F)(F)F)cc3)cs2)cc1", "86 nM"),
    ("O=C(O)CCNC(=O)c1ccc(CN(c2ccc(C3=CCCCC3)cc2)c2nc(-c3ccc(Cl)cc3)c(-c3ccccc3)s2)cc1", "86 nM"),
]

The reported measurements were obtained from ChEMBL document CHEMBL1138494.
